Values from patent US20120164142A1

Kindly supply the reported log10 EC50 (nM), NPR-B whole cell cGMP assay values for the records listed here.
# target: human natriuretic peptide receptor B (NPR-B) (human) (UniProt P20594)
# Sequence (P20594 23-1047): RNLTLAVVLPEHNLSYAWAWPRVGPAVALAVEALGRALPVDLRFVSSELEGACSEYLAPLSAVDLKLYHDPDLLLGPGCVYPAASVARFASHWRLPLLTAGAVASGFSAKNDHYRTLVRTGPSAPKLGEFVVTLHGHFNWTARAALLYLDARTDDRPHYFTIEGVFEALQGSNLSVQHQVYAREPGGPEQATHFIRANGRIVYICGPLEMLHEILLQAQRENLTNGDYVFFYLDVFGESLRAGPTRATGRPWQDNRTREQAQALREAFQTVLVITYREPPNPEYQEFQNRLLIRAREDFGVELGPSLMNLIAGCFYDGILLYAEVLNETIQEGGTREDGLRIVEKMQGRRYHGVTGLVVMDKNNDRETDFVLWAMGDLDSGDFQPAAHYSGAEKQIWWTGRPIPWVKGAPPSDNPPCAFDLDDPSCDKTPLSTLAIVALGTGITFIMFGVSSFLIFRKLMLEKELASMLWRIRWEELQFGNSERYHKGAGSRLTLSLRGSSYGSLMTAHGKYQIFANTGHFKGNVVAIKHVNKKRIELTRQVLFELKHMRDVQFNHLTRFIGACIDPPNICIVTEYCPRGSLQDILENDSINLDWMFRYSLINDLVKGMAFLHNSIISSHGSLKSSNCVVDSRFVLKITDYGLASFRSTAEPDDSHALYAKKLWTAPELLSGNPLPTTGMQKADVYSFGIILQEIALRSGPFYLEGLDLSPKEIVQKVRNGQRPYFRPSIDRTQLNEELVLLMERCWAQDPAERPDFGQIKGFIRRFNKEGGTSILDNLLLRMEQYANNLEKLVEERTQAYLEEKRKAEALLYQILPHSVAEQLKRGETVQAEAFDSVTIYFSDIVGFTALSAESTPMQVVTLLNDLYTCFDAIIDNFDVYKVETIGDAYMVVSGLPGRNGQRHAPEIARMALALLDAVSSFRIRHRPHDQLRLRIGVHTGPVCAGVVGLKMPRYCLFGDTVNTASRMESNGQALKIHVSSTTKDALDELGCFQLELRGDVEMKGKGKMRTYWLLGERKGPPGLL
# method.description: cell-based or functional assay
Values below are the log10 of the recorded EC50 (nM), NPR-B whole cell cGMP assay, with nM as the unit.

Bench note: what log10 EC50 (nM), NPR-B whole cell cGMP assay did EEEEEEHGPQGQEHPNARKYKGANKKGLSKGCFGLKLDRIGSMSGLGC [KA1(E6)] show?
2.16

Bench note: what log10 EC50 (nM), NPR-B whole cell cGMP assay did EEEEEESGGGGSGGGGSGGGGGLSKGCFGLKLDRIGSMSGLGC [C1(E6) [BC1]] show?
3.24

Bench note: what log10 EC50 (nM), NPR-B whole cell cGMP assay did EEEEEESGGGGSGGGKGANKKGLSKGCFGLKLDRIGSMSGLGC [C4(E6) [BC4]] show?
2.48

Bench note: what log10 EC50 (nM), NPR-B whole cell cGMP assay did EEEEEESGGGGSGGGQGANQQGLSKGCFGLKLDRIGSMSGLGC [C5(E6) [BC5]] show?
3.37

Bench note: what log10 EC50 (nM), NPR-B whole cell cGMP assay did EEEEEESGGGGSGGGKGANQKGLSKGCFGLKLDRIGSMSGLGC [C7(E6) [BC7]] show?
3.00

Bench note: what log10 EC50 (nM), NPR-B whole cell cGMP assay did EEEEEEHKLRGQEHPNARKYKGANKKGLSKGCFGLKLDRIGSMSGLGC [KB1(E6)] show?
1.93

Bench note: what log10 EC50 (nM), NPR-B whole cell cGMP assay did GLSKGCFGLKLDRIGSMSGLGCGGGGSGGGGSGGGGDDDDDD [CNP-14AAlinker-D6 [C4]] show?
3.33

Bench note: what log10 EC50 (nM), NPR-B whole cell cGMP assay did EEEEEESGGGGSGGGQGANQKGLSKGCFGLKLDRIGSMSGLGC [C10(E6) [BC10]] show?
3.39
